Assay: Thermodynamic solubility test
Type: physicochemical
Conditions: buffer solution, aqueous buffer, thermodynamic from solid; positive compound
observed-property: solubility thermodynamic at 8 h

Memo: CNC(=O)c1ccccc1Sc1ccc2c(/C=C/c3ccccn3)n[nH]c2c1 , reported solubility thermodynamic at 8 h: < 2 µg/mL

###

pIC50: −log10 of the molar value.
Observed pIC50, system EGFR (Homo sapiens, UniProt P00533).

>>> result_value("O=C(O)c1ccccc1Sc1ccn2c(/C=C/c3ccccn3)ncc2c1")
"≥ 6.22"
>>> result_value("CCN(CC)CCc1ccc(/C=C/c2n[nH]c3cc(Sc4ccccc4C(=O)NC4CC4)ccc23)nc1")
"4.22 to 5.22"
>>> result_value("CNC(=O)c1cccc(F)c1Sc1ccc2c(/C=C/c3ccc(CN4CCCC4)cn3)n[nH]c2c1")
"4.22 to 5.22"
>>> result_value("CCN(CC)Cc1ccc(/C=C/c2n[nH]c3cc(Sc4c(F)cccc4C(=O)NC4CC4)ccc23)nc1")
"4.22 to 5.22"
>>> result_value("O=C(NC1CC1)c1cc(F)ccc1Sc1ccc2c(/C=C/c3cc(CCCN4CCCC4)ccn3)n[nH]c2c1")
"< 4.22"

Per the record, CNC(=O)c1cc(F)ccc1Sc1ccc2c(/C=C/c3cnn(CCCN4CCCC4)c3)n[nH]c2c1 has pIC50 of 4.22 to 5.22

The compound listed as CNC(=O)c1ccccc1Sc1ccc2c(/C=C/c3cncc(OCCN4CCCC4)c3)n[nH]c2c1 shows pIC50 equal to < 4.22

###

Test: Thermodynamic solubility test
Type: physicochemical
Details: buffer solution, aqueous buffer, thermodynamic from solid; thermodynamic solubility, room temperature, 8 hours shaking; buffers pH 2.0, 6.5, 7.4 used, pH of the tabulated value not given
Quick reference: log10(solubility at 8 h) of the listed items.
// units: µg/mL (pre-log); metric: solubility at 8 h; scale: log10

// worked examples, log10(solubility at 8 h) included
>>> result_value("O=C(NC1CC1)c1cccc(F)c1Sc1ccc2c(/C=C/c3ccc(CN4CCCC4)cn3)n[nH]c2c1 [Compound I-67]")
2.07
>>> result_value("CCN(CC)Cc1ccc(/C=C/c2n[nH]c3cc(Sc4ccccc4C(=O)NC4CC4)ccc23)nc1 [Compound I-78]")
1.44
>>> result_value("CCNC(=O)c1cc(F)ccc1Sc1ccc2c(/C=C/c3cnn(CCCN4CCCC4)c3)n[nH]c2c1 [Compound I-104]")
3.34
>>> result_value("O=C(NC1CC1)c1ccccc1Sc1ccc2c(/C=C/c3ccc(OCCN4CCCC4)cn3)n[nH]c2c1 [Compound I-8]")
3.27
>>> result_value("CNC(=O)c1ccccc1Sc1ccc2c(/C=C/c3cnn(CCN4CCCC4)c3)n[nH]c2c1 [Compound I-9]")
2.56

Reported log10(solubility at 8 h) for CNC(=O)c1ccccc1Sc1ccc2c(/C=C/c3ccccn3)ncn2c1 [Compound I-26] was 2.15

Record O=C(NC1CC1)c1cc(F)ccc1Sc1ccc2c(/C=C/c3ccc(CN4CCCC4)cn3)n[nH]c2c1 [Compound I-80] , field log10(solubility at 8 h): 2.30

###

Assay system VEGFR2 (Homo sapiens, UniProt P35968); read-out recorded as IC50.

Use the examples below as a reference point.
>>> result_value("O=C(NC1CC1)c1cc(F)ccc1Sc1ccc2c(/C=C/c3cnn(CCCN4CCCC4)c3)n[nH]c2c1")
"≤ 1 nM"
>>> result_value("CNC(=O)c1ccccc1Sc1ccc2c(/C=C/c3ccc(OCCC4CCN(C)CC4)cn3)n[nH]c2c1")
"≤ 1 nM"

# IC50 measured on VEGFR2 (Homo sapiens, UniProt P35968) for item CN1CCN(c2ccc(/C=C/c3n[nH]c4cc(Sc5ccccc5C(=O)NC5CC5)ccc34)nc2)CC1 = ≤ 1 nM

Result for O=C(O)c1ccccc1Sc1ccn2c(/C=C/c3ccccn3)ncc2c1 , tested on VEGFR2 (Homo sapiens, UniProt P35968), IC50: > 100 nM

Record CCNC(=O)c1ccc(F)cc1Sc1ccc2c(/C=C/c3cnn(CCCN4CCCC4)c3)n[nH]c2c1 / VEGFR2 (Homo sapiens, UniProt P35968), IC50 recorded as ≤ 1 nM

Item CCN(CC)CCc1ccc(/C=C/c2n[nH]c3cc(Sc4ccccc4C(=O)NC4CC4)ccc23)nc1 was tested on VEGFR2 (Homo sapiens, UniProt P35968); the reported IC50 is ≤ 1 nM

Form field, IC50 with VEGFR2 (Homo sapiens, UniProt P35968), item CNC(=O)c1ccccc1Sc1ccc2c(/C=C/c3ccc(OCC4CCCN4C)cn3)n[nH]c2c1 (stereo not drawn) : ≤ 1 nM

Entry O=C(NC1CC1)c1ccc(F)cc1Sc1ccc2c(/C=C/c3ccc(CN4CCCC4)cn3)n[nH]c2c1 : IC50 on VEGFR2 (Homo sapiens, UniProt P35968) = ≤ 1 nM

For the compound CNC(=O)c1ccccc1Sc1ccc2c(/C=C/c3ccc(OCC4CCNC4)cn3)n[nH]c2c1 (stereo not drawn) , the measured IC50 on VEGFR2 (Homo sapiens, UniProt P35968) was 1 to 10 nM
